List of Kd values.
- MEASURED_ON: T1, hIL10Ra-his (Sino Biological, Catalog#10419) (human, UniProt Q13651 22-235)
- T1 construct: Bought; also called Sino Biological cat#10419-H08H; not shown: C-terminal poly-His tag
- T1 sequence: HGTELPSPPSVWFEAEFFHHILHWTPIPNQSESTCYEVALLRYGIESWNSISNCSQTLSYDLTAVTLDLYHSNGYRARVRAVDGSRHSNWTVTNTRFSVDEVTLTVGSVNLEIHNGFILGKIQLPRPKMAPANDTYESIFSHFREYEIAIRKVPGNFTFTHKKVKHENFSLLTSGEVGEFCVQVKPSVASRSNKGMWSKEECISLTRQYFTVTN
- PROTOCOL_DESCRIPTION: SPR Biacore T200; mono-Fc VHH captured on Protein A chip, hIL10Ra-his analyte; 1:1 Langmuir fit

BINDER: hIL-10Ra_VHH14 Mono-Fc (Fc fusion, Mono-Fc VHH captured on Protein A; not shown: mono-Fc part) QVQLQESGGGSVQAGGSLRLSCGASGYTYSSYCMGWFRQVPGKEREGVAVIDSDGSTSYADSVKGRFTISKDNGKNTLYLQMNSLKPEDTAMYYCAADLGHYRPPCGVLYLGMDYWGKGTQVTVSS
UOM: nM
Kd: 1.4
//
BINDER: hIL-10Ra_VHH8 Mono-Fc (Fc fusion, Mono-Fc VHH captured on Protein A; not shown: mono-Fc part) QVQLQESGGGSVQAGGSLRLSCAASGYTYSMYCMGWFRQAPGKEREGVAQINSDGSTSYADSVKGRFTISKDNAKNTLYLQMNSLKPEDTAMYYCAADSRVYGGSWYERLCGPYTYEYNYWGQGTQVTVSS
UOM: nM
Kd: 6.4
//
BINDER: hIL-10Ra_VHH12 Mono-Fc (Fc fusion, Mono-Fc VHH captured on Protein A; not shown: mono-Fc part) QVQLQESGGGSVQAGGSLRLSCTVSGYTYSSNCMGWFRQAPGKEREGVATIYTGGGNTYYADSVKGRFTISQDNAKNTVYLQMNNLKPEDTAMYYCAAEPLSRVYGGSCPTPTFDYWGQGTQVTVSS
UOM: nM
Kd: 7.7

Source: patent US20250163167A1
